I'd be grateful if you could share measured PBM binding z-score for these entries.
- Test system: PXR:RXRa (NR concentration 270 nM, RXRa partner concentration 90 nM)
- TEST_SUMMARY: PBM binding z-score (relative to random genomic background probes); higher = stronger binding; sequences stand for … in GC…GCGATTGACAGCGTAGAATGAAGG
Numbers only.

Some sequences with known PBM binding z-score results, for comparison:
> print(dat)
                       sequence.input  quantitative.readout
1  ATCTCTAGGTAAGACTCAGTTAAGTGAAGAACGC                 0.115
2  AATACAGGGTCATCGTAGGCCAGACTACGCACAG                  4.73
3  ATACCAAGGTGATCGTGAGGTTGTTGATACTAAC                 0.741
4  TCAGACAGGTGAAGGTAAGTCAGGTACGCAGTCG                 0.265
5  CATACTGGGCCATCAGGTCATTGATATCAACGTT                  1.99
6  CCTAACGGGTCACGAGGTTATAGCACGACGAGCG                  4.45
7  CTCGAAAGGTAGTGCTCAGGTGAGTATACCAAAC                -0.295
8  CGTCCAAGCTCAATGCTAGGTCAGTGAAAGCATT                0.0332

Okay, here is my list. What is PBM binding z-score for each of these?
1. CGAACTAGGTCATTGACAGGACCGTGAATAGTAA
2. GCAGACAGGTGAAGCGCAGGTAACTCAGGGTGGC
3. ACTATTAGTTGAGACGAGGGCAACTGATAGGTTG
4. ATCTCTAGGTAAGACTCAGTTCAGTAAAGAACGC

A)
[0.914, -0.484, 1.22, 1.24]

I need PBM binding z-score for every entry listed below, if you could help.
1. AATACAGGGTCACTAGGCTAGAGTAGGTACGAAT
2. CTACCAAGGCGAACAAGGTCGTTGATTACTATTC
3. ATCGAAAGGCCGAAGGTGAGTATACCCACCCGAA
4. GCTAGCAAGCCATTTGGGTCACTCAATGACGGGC

A)
1: 2.96; 2: 1.25; 3: -0.245; 4: 0.0188
